tested on: CEM cells HIV-1 protection, formazan growth assay; test: NCI AIDS Antiviral Assay;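 active = compounds giving half or more protection of infected cells from virus-caused growth loss, again on retest; inactive = the rest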
Permitted responses: TRUE for active, FALSE for inactive

Observe how each entry below is paired with its result.
{"COMPOUND": "Cn1c(=O)sc2cc(C(=S)N3CCCCC3)ccc21", "DISCRETE LABEL": "FALSE"}
{"COMPOUND": "O=C(O)c1cc[c]([Sb](=[O])([OH])[OH])cc1[N+](=O)[O-]", "DISCRETE LABEL": "TRUE"}
{"COMPOUND": "O=C(O)C1(CC(CCCN2CCCCC2)c2ccccc2)CCCC1 (centres undefined)", "DISCRETE LABEL": "FALSE"}
{"COMPOUND": "O=[N+]([O-])C(Cl)C(Cl)C(Cl)=C(Cl)Cl (centres undefined)", "DISCRETE LABEL": "FALSE"}
{"COMPOUND": "N#Cc1cc2ccccc2n(Cc2ccccc2)c1=O", "DISCRETE LABEL": "FALSE"}
{"COMPOUND": "O=C(O)C(=O)CC(=O)c1ccc(Cl)cc1", "DISCRETE LABEL": "FALSE"}
{"COMPOUND": "CC(CO)CCNc1ncnc2c1ncn2CCC#N (centres undefined)", "DISCRETE LABEL": "FALSE"}
{"COMPOUND": "CN1C(=O)c2ccccc2Cc2c(NCc3ccccc3)ncnc21", "DISCRETE LABEL": "FALSE"}
{"COMPOUND": "CN1C(=S)N2CCCCCCCC2c2c1nc(CCl)[nH]c2=O (centres undefined)", "DISCRETE LABEL": "FALSE"}
{"COMPOUND": "CCOc1ccc(-n2nnc3c(N)nc(N)nc32)cc1", "DISCRETE LABEL": "FALSE"}

Lookup: Hi, sorry to bother you, what did the test record for Clc1ccnc2c1ccc1c(Cl)ccnc12 ?
Found: FALSE

Lookup: # iterate: COC(=O)C1(Cc2cccc(Cl)c2)CCCCCCN1C(=O)c1ccccc1 (centres undefined)
Found: FALSE

Lookup: And the next one, COC(=O)C1CC(C=[N+](C)C)=C(SC)N1C(=O)OCc1ccccc1 (centres undefined) ?
Found: FALSE

Lookup: And COc1ccc2[nH]cc([C@@H]3C4CCC(C4)[C@H]3NCc3cccc(CN[C@H]4C5CCC(C5)[C@@H]4c4c[nH]c5ccc(OC)cc45)c3)c2c1 ?
Found: FALSE

Lookup: Proceed to COc1ccc(C2C3=C(COC3=O)OC(C)(C)Oc3cc4c(cc32)OCO4)cc1 (centres undefined)
Found: FALSE

Lookup: Now give it for Brc1ccc(CCNCCN2CCCCC2)cc1 too.
Found: FALSE

Lookup: Moving on to O=C(O)C12C3CCC(C3)C1(C(=O)O)C1CCC2C1 (centres undefined)
Found: FALSE

Lookup: What would you report for O=S(=O)(OI(O)CC(F)(F)F)C(F)(F)F ?
Found: FALSE

Lookup: Same question, CN1CSC(=S)N(C)C1 this time
Found: FALSE

Lookup: Same for CC(=O)O[C@H]1C#C/C=C\C#CC[C@@H]2C(=O)N(C(=O)OC(C)(C)C)[C@@H]12
Found: FALSE

Lookup: One more compound: N/N=C(\c1ccccc1)c1cccs1
Found: FALSE

Lookup: Next entry: CCC[CH2][Sn]([CH2]CCC)([O]C(=O)c1nccnc1N)[O]C(=O)c1nccnc1N
Found: FALSE

Lookup: Would you mind doing CCOC(=O)/C(=C/c1ccccc1)C(=O)c1ccccc1 as well?
Found: FALSE

Lookup: Proceed to Nc1ncc(CN2CCOCC2)c(-c2ccccc2O)n1
Found: FALSE

Lookup: Another compound: COP(=O)(Cc1ccc(/C=C/C#N)o1)OC
Found: FALSE

Lookup: Same question, Brc1cscc1Cc1cscc1Br this time
Found: FALSE

Lookup: What about Cc1cccc(NC(=O)Nc2cccc(Cl)c2Cl)n1 ?
Found: FALSE

Lookup: Repeat for the following compound: CN1N=C(c2ccncc2)OC1c1cccc(C(F)(F)F)c1 (centres undefined)
Found: FALSE

Lookup: And O=C1c2ccccc2C(=O)N1CC(O)COc1cccc2ccccc12 (centres undefined) ?
Found: FALSE
